- System: UACC-62 melanoma
- measurement.notes: NCI-60 one-dose screen, 48 h (100 = growth as untreated, 0 = no growth, -100 = all killed)
- condition: 10 µM
Compounds without any hit were thinned out: in the full panel of roughly 83,000, 20% have a hit.

compound | growth / %
O=C(O)c1ccccc1C(=O)c1cccc2c(F)cccc12 | 97.7
COc1ccc(N2CCN(c3nc(-c4ccccc4)c(C#N)c(=O)[nH]3)CC2)cc1 | 94.8
Oc1cc(O)c(Br)cc1Br | 101
C[C@@H]1C(=O)N(C[C@H](Cc2ccccc2)NC(=O)OCc2ccccc2)[C@]1(Cc1ccccc1)C(=O)OCc1ccccc1 | 40.7
COC(=O)c1cnc2c(c1)Oc1ccc(Cl)cc1-c1cc(C)nn1-2 | 74.7
CCc1ccc(-c2nnc(COc3ccc(-c4nc5ccc(C)cc5[nH]4)cc3OC)o2)cc1 | 79.6
Cn1c(N)c(N=Cc2ccccc2)c(=O)n(C)c1=O | 115
FC(F)(F)c1ccc(-c2ncc(-c3ccc(C(F)(F)F)cc3)c(NCc3cc(C(F)(F)F)cc(C(F)(F)F)c3)n2)cc1 | 51.6
COc1cccc2c1O/C(=C\c1ccc([N+](=O)[O-])s1)C2=O | 35.9
FC(F)(F)c1ccc(-c2cnc(Cl)nc2NCc2cc(C(F)(F)F)cc(C(F)(F)F)c2)cc1 | 6.65
COc1cc(-c2c(C#N)c(N)n3c(nc4ccccc43)c2C#N)cc(Br)c1OC | 55.2
COc1cccc(C(=O)NNc2nc(N3CCN(C4CCCCC4)CC3)nc(N3CCN(C(c4ccccc4)c4ccccc4)CC3)n2)c1 | 39.6
CC(C)(C)CC(C)(C)c1ccc(O)c(Cc2ccc(Cl)cc2Cl)c1 | -87.9
Cc1ccc(-n2nnc3c(sc4ccccc43)c2=O)cc1 | 85.4
O=[N+]([O-])c1ccc(Br)o1 | 103
COc1cc(CSc2nc3ccc(Cl)cc3c(=O)n2-c2ccccc2)cc(OC)c1OC | 64.1
CCN(CC)CC(O)Cc1ccc(OC)cc1 (stereo unspecified) | 111
CC1=CC2OC34COC3CC(OC(=O)C(F)(F)F)C4(C)C2(C)CC1 (stereo unspecified) | 101
O=C(Nc1ccc(OCc2nnc(-c3ccccc3)o2)c(F)c1)Nc1ccc(Cl)c(Cl)c1 | 58
Cc1ncc([N+](=O)[O-])n1CCOc1ccc(C(=O)/C=C/c2ccc(C(F)(F)F)cc2)cc1 | 67.5
C=CCNC(=S)NN | 99.6

----------
- Test system: COLO 205 colon
- measurement.notes: NCI-60 one-dose screen, 48 h (100 = growth as untreated, 0 = no growth, -100 = all killed)
- condition: 10 µM
- Experimental: Cells are grown in 96 well plates and exposed to the test compound for 48 hours. Compounds are tested at a single concentration, which is 10^-5 M for most compounds. The reported endpoint is percent growth (GI% or GIPRCNT), where numbers from 0 - 100% represent growth inhibition, and numbers from -100% - 0 represent cell death. For example, a value of 40 represents 60% growth inhibition. A value of 0 means no net growth occurred over the course of the experiment. […]
Compounds without any hit were thinned out: in the full panel of roughly 83,000, 20% have a hit. Activity calls are given as the source filed them. The calls were made as follows: active = growth percent below 10; inactive = the rest.

compound | growth
CN(C)CCCN(Cc1ccccc1O)C(=S)Nc1ccc(Cl)cc1 | 113% (inactive)
Cc1cc(C)c(C(=O)OC(C)CNC2CCCCC2)c(C)c1 (stereo unspecified) | 96.8% (inactive)
COCCNCC(O)Cn1c2ccc(Cl)cc2c2cc(Cl)ccc21 (stereo unspecified) | -67.9% (active)
c1ccc(CNc2nc(Nc3ccc(-c4nc5ccccc5[nH]4)cc3)c3cn[nH]c3n2)cc1 | -60.1% (active)
Cc1ccc(-n2nnc3c(sc4ccccc43)c2=O)cc1 | 44% (inactive)
COc1cc(-c2cc(-c3ccc(C)cc3)nc3nc(N)[nH]c(=O)c23)ccc1Oc1ccnc2cc(Cl)ccc12 | 107% (inactive)
COc1ccc(CSc2nc3cc(OC)c(OC)cc3c(=O)n2-c2ccc(OC)cc2OC)cc1 | 101% (inactive)
Cc1cnc(C=O)c2cccc([N+](=O)[O-])c12 | 106% (inactive)
CNC(=O)c1cc(Oc2ccc(NC(=O)Nc3ccc(Cl)c(C(C)(C)C)c3)c(F)c2)ccn1 | 19.6% (inactive)
CCSc1nc2c([nH]1)c(=O)n(C)c(=S)n2C | 106% (inactive)
Cc1cn(C(=O)/C(Cl)=C(/Cl)C(=O)O)c2ccccc12 | 91.7% (inactive)

----------
- Test system: 786-0 renal
- measurement.notes: NCI-60 one-dose screen, 48 h (100 = growth as untreated, 0 = no growth, -100 = all killed)
- condition: 10 µM
Compounds without any hit were thinned out: in the full panel of roughly 83,000, 20% have a hit.
Reported growth is given for each of the following compounds.

compound | growth, %
O=C(C=P(c1ccccc1)(c1ccccc1)c1ccccc1)c1ccc(Br)cc1 | 97.9
FC(F)(F)c1ccc(-c2cnc(Cl)nc2NC2CCCCCC2)cc1 | 40.1
COc1cc(/C=C/C(=O)c2cc(-c3ccc(C(F)(F)F)cc3)ccc2O)cc(OC)c1OC | 80.3
C[N+]1(CC2CO2)CCCCCC1 (stereo not given) | 105
CC(=O)N(O)c1ccc(/C=C/c2ccccc2)cc1 | 19.9
CCc1c(C(=O)NCc2c(O)ccc3cccc(O)c23)[nH]c(C)c1C(C)=O | 60.9
NC1CCC(Nc2nc(NCc3ccc(-c4ccco4)nc3)c3ncn(C4CCCC4)c3n2)CC1 (stereo not given) | 8.51
CCOC(=O)c1sc(NC(=O)c2cc(OC)c(OC)c(OC)c2)nc1C | 114
COc1cc(-c2nc3ccccc3[nH]2)ccc1OCc1nnc(-c2ccc(Br)cc2)o1 | 90.2
Cc1nc2ccc(-n3c(-c4ccc(Cl)cc4)nc4ccccc4c3=O)cc2n1Cc1ccccc1 | 105

----------
- Test system: HS 578T breast
- measurement.notes: NCI-60 one-dose screen, 48 h (100 = growth as untreated, 0 = no growth, -100 = all killed)
- condition: 10 µM
About 83,000 compounds went through this panel and 20% of them were active in at least one assay; those are over-represented in the sample as a whole.
Entry flag: Met if growth reaches 90%; Not met if it does not.

compound | group.label
CCOc1nc(-c2ccccc2)cc2c(O)c(C(=O)N/N=C/c3ccc(OC)cc3)[nH]c(=O)c12 | Met
COc1ccc(-c2cc(/C=C3\C(=O)Nc4cc(Cl)ccc43)[nH]n2)cc1OC | Not met
CCNC(=S)NN | Met
COc1cc(-c2cc(-c3cc(OC)c(OC)c(OC)c3)nc3nc(N)[nH]c(=O)c23)ccc1Oc1ccnc2cc(Cl)ccc12 | Not met
COc1ccc(-c2cn[nH]c2-c2cc(OC)c(OC)c(OC)c2)cc1 | Not met
CCOC(=O)c1cc2c(n1Cc1cccc(OC)c1)-c1oncc1CC2 | Not met
CCCCCCCCCCCCc1ccc(C(=O)/C=C/C(=O)O)cc1 | Met
CCn1nc(-c2ccccn2)c2cccnc2c1=S | Met
CCNC1(NC#N)CCCCC1 | Met
Cc1ccc(C2C=C(c3ccc(Cl)cc3)N=C3SC=CN32)c(Br)c1 (stereo unspecified) | Met

----------
- Tested on: SNB-19 CNS
- measurement.notes: NCI-60 one-dose screen, 48 h (100 = growth as untreated, 0 = no growth, -100 = all killed)
- condition: 10 µM
Compounds without any hit were thinned out: in the full panel of roughly 83,000, 20% have a hit.
Under this convention, condition met denotes growth strictly below 80% and condition not met denotes growth at or above 80%.

compound | group.label
CN(C1c2ccccc2Oc2ccccc21)S(=O)(=O)c1cc(Cl)ccc1Cl | condition met
CNC(=S)Sc1ccc([N+](=O)[O-])cc1[N+](=O)[O-] | condition not met
CCN(CC)CCCOC(=O)Nc1ccccc1Cl | condition not met
COc1ccc(N2CCN(c3nc(-c4ccccc4)c(C#N)c(=O)[nH]3)CC2)cc1 | condition not met
COc1ccc(-c2nsc3c2NC(=O)CC3c2cccc(Cl)c2)cc1 (stereo not given) | condition met
Brc1ccc(-c2cn3ccnc3c(-c3ccc(Br)cc3)n2)cc1 | condition met
COc1cccc(C(=O)N(c2ccc(F)c(F)c2)C(C(=O)NC(C)(C)C)c2cc3c(C)cc(C)cc3nc2Cl)c1 (stereo not given) | condition met
O=[N+]([O-])c1ccc2c(c1)Cc1cc(I)ccc1-2 | condition not met
COc1cc(-c2nc(-c3nnc(-c4cccnc4)o3)c3ccccn23)cc(OC)c1OC | condition not met
CC(C)OP(=O)(O)c1ncc(-c2ccc(C(F)(F)F)cc2)c(NC2CCCCCC2)n1 | condition met

----------
- Test system: SNB-19 CNS
- measurement.notes: NCI-60 one-dose screen, 48 h (100 = growth as untreated, 0 = no growth, -100 = all killed)
- condition: 10 µM
About 83,000 compounds went through this panel and 20% of them were active in at least one assay; those are over-represented in the sample as a whole.
Each entry below carries its reported growth.

compound | growth / %
O=C(NCCc1nccs1)c1cnc2c(S)cccc2c1 | 28.5
O=C/C=C/c1ccc([N+](=O)[O-])cc1Cl | 105
COc1cc(C(c2c[nH]c3ccccc23)N2CCCC2)ccc1OCc1ccccc1 (configuration not stated) | 87.5
COc1ccc(-c2ccccc2)cc1C(=O)c1ccc(-c2ccccc2)cc1 | 81.3
COc1ccc2nc(/C=C/c3ccc(N(C)C)cc3)sc2c1 | 131
CCCCC(=O)N(c1ccc(Nc2c3ccccc3nc3cc([N+](=O)[O-])ccc23)cc1)S(C)(=O)=O | 69.5
CC1=CC2OC34COC3CC(OC(=O)C(F)(F)F)C4(C)C2(C)CC1 (configuration not stated) | 94.5
COc1cc(CSc2nc3ccc(Cl)cc3c(=O)n2-c2ccccc2)cc(OC)c1OC | 80.6
COc1cccc(C2(C)Nc3ccccc3-c3nc4ccccc4n32)c1 (configuration not stated) | 105
C=CCn1c(C)nc2cc(Nc3nc(Nc4ccc5nc(C)n(CC=C)c5c4)c4ccccc4n3)ccc21 | -66.1
O=C(c1ccccc1)C(Sc1ccccc1)c1ccccc1 (configuration not stated) | 110
COc1cc(/C=C/C(=O)c2cc(-c3ccc(C(F)(F)F)cc3)ccc2O)cc(OC)c1OC | 75.4
Cc1ccc2c3c(cccc13)-c1ccccc1C2=O | 96.5
O=C(NNc1nc(N2CCCC2)nc(N2CCCC2)n1)c1ccccc1 | 99.6
Cc1ccc(-n2c(-c3cc4c([nH]c5ccccc54)c(-c4cccc(O)c4)n3)n[nH]c2=S)cc1 | 4.47
CCc1nn2c(-c3cc(OC)c(OC)c(OC)c3)c(-c3cc(OC)c(OC)c(OC)c3)nc2s1 | 61.9
O=S(=O)(NCl)c1ccccc1 | 104
O=C1CC(c2cccc(-c3cccnc3)c2)=Nc2ccc(Br)cc2N1 | 62.9
O=C(c1ccc(Cl)cc1)c1no[n+]([O-])c1C(=O)c1ccc(Cl)cc1 | 115
COc1ccc2nc(-c3ccccc3)cc(C(C)=O)c2c1 | 101
COc1cc(C)c2sc3ccccc3c(=O)c2c1NCCN(C)C | 65.2
Cn1c(=O)c2[nH]c(C(O)c3ccc(Cl)cc3)nc2n(C)c1=O (configuration not stated) | 95.8

Numbers sourced from PubChem BioAssay (NCI).
